Value source: ChEMBL document CHEMBL1649315

Tested on: Escherichia coli
EXPERIMENTAL DETAILS: Antimicrobial activity against Escherichia coli TOP10 harboring pADC-33 plasmid carrying entire blaAmpC gene with alanine residue deletion at 215 position and R210P substitution by Etest method
Format: functional
Items are presented alongside their recorded MIC.
Express your answer in µg/mL, writing the number without its unit.

Prompt: Report MIC for C[C@H]1[C@H](NC(=O)/C(=N\OC(C)(C)C(=O)O)c2csc(N)n2)C(=O)N1S(=O)(=O)O [AZTREONAM] tested on Escherichia coli.
Completion: 2

Prompt: Report MIC for C[C@@H](O)[C@H]1C(=O)N2C(C(=O)O)=C(SCCNC=N)C[C@H]12 [IMIPENEM ANHYDROUS] tested on Escherichia coli.
Completion: 0.25

Prompt: Report MIC for C[C@@H](O)[C@H]1C(=O)N2C(C(=O)O)=C(S[C@@H]3CN[C@H](C(=O)N(C)C)C3)[C@H](C)[C@H]12 [MEROPENEM] tested on Escherichia coli.
Completion: 0.032

Prompt: Report MIC for CC1(C)S[C@@H]2[C@H](NC(=O)[C@H](C(=O)O)c3ccsc3)C(=O)N2[C@H]1C(=O)O [TICARCILLIN] tested on Escherichia coli.
Completion: 128

Prompt: Report MIC for CC(C)(O/N=C(\C(=O)N[C@@H]1C(=O)N2C(C(=O)[O-])=C(C[n+]3ccccc3)CS[C@H]12)c1csc(N)n1)C(=O)O [CEFTAZIDIME] tested on Escherichia coli.
Completion: 8

Prompt: Report MIC for CO/N=C(\C(=O)N[C@@H]1C(=O)N2C(C(=O)O)=C(COC(C)=O)CS[C@H]12)c1csc(N)n1 [CEFOTAXIME] tested on Escherichia coli.
Completion: 8

Prompt: Report MIC for `CO/N=C(\C(=O)N[C@@H]1C(=O)N2C(C(=O)[O-])=C(C[N+]3(C)CCCC3)CS[C@H]12)c1csc(N)n1` tested on Escherichia coli.
Completion: 0.125

Prompt: Report MIC for CO/N=C(\C(=O)N[C@@H]1C(=O)N2C(C(=O)[O-])=C(C[n+]3cccc4c3CCC4)CS[C@H]12)c1csc(N)n1 [CEFPIROME] tested on Escherichia coli.
Completion: 0.125

----------
Test system: Acinetobacter baumannii
EXPERIMENTAL DETAILS: Antimicrobial activity against Acinetobacter baumannii CIP70.10 by Etest method
Type: functional
MEASURED PROPERTY: MIC (µg/mL)
Express your answer in µg/mL, writing the number without its unit.

Would you please look over these solved cases?
CC1(C)S[C@@H]2[C@H](NC(=O)[C@H](C(=O)O)c3ccsc3)C(=O)N2[C@H]1C(=O)O; 8
CO/N=C(\C(=O)N[C@@H]1C(=O)N2C(C(=O)O)=C(COC(N)=O)CS[C@H]12)c1ccco1; 32
C[C@@H](O)[C@H]1C(=O)N2C(C(=O)O)=C(SCCNC=N)C[C@H]12 [IMIPENEM ANHYDROUS]; 0.25
C[C@H]1[C@H](NC(=O)/C(=N\OC(C)(C)C(=O)O)c2csc(N)n2)C(=O)N1S(=O)(=O)O; 8
CO/N=C(\C(=O)N[C@@H]1C(=O)N2C(C(=O)[O-])=C(C[N+]3(C)CCCC3)CS[C@H]12)c1csc(N)n1; 1

Prompt: Reported MIC for `CO/N=C(\C(=O)N[C@@H]1C(=O)N2C(C(=O)O)=C(COC(C)=O)CS[C@H]12)c1csc(N)n1` : what is it?
Completion: 8

Prompt: Reported MIC for `CC1(C)S[C@@H]2[C@H](NC(=O)[C@H](N)c3ccc(O)cc3)C(=O)N2[C@H]1C(=O)O` : what is it?
Completion: 32

----------
Tested on: Escherichia coli
EXPERIMENTAL DETAILS: Antimicrobial activity against Escherichia coli TOP10 harboring pADC-33 plasmid by Etest method
Type: functional
Items are presented alongside their recorded MIC.

CC1(C)S[C@@H]2[C@H](NC(=O)[C@H](N)c3ccc(O)cc3)C(=O)N2[C@H]1C(=O)O [AMOXICILLIN]; > 256 µg/mL
CC(C)(O/N=C(\C(=O)N[C@@H]1C(=O)N2C(C(=O)[O-])=C(C[n+]3ccccc3)CS[C@H]12)c1csc(N)n1)C(=O)O [CEFTAZIDIME]; > 256 µg/mL

Now for another entry.
Prompt: Reported MIC for CO/N=C(\C(=O)N[C@@H]1C(=O)N2C(C(=O)O)=C(COC(N)=O)CS[C@H]12)c1ccco1 [CEFUROXIME] : what is it?
Completion: > 256 µg/mL

----------
System: Escherichia coli
EXPERIMENTAL DETAILS: Antimicrobial activity against Escherichia coli TOP10 harboring pADC-33 plasmid carrying entire blaAmpC gene with alanine residue deletion at 215 position and R210P substitution by Etest method
Assay type: functional
MEASURED PROPERTY: MIC

CC1(C)S[C@@H]2[C@H](NC(=O)[C@H](N)c3ccc(O)cc3)C(=O)N2[C@H]1C(=O)O; > 256 µg/mL
CO/N=C(\C(=O)N[C@@H]1C(=O)N2C(C(=O)O)=C(COC(N)=O)CS[C@H]12)c1ccco1; > 256 µg/mL

Now for another entry.
Prompt: Report MIC for `CCN1CCN(C(=O)N[C@@H](C(=O)N[C@@H]2C(=O)N3[C@@H]2SC(C)(C)[C@@H]3C(=O)O)c2ccccc2)C(=O)C1=O` tested on Escherichia coli.
Completion: > 256 µg/mL
